B1: Transcription factor SOX-4, residues 60 to 127; numbered along this chain, Q06945 (parent)
chain: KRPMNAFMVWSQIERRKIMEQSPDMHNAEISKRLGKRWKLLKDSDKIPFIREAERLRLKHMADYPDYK

- Variants of: B1
- Test name: abundance fitness (aPCA) (normalised: wild type 0, dead -1); higher = more abundant; growth selection in yeast, the domain comes from the species named
- Condition label: Homo sapiens
The class of a record is decided solely by its measured abundance fitness; consult low = under -0.4, intermediate = from -0.4 up to -0.07, high = -0.07 and over

As a guide, the following entries are already answered.
E54K
intermediate
D45K
low
A62K
high
R55Q
intermediate
K32I
intermediate

The entry to classify is `L41Q` ; which class holds it?
low

Note: place this variant into its band. Item: `A53N`
intermediate

Each variant maps to one class by abundance fitness. Which class for `K46W` ?
low

Which category does the recorded abundance fitness put `D24E` in?
high

Band for `E52Y` ?
low

Cited source for all entries: the Human Domainome abundance scans (Beltran et al. 2025)
